Task for the reader: assign each of the following compounds its reported zone of inhibition, Experiment 2 Control.
- Test system: Staphlococcus saprophyticus
- assay explanation: paper disc diffusion susceptibility (Kirby-Bauer) method
- Type: cell-based
- condition info: antibiotic disc alone; 24 hours
Positions of bridges follow the written chain, without caps; N, C: chain ends. Non-standard residues stand in square brackets, D forms with d. Residues, ends and D or L forms follow the SMILES beside them. *: point of attachment. Ileψ(thiazoline)Cys = CC[C@H](C)[C@H](N)C1=N[C@H](C(=O)*)CS1; dOrn = NCCC[C@@H](N)C(=O)O
// return numeric value only (unit: mm, not printed)

Recorded zone of inhibition, Experiment 2 Control for O=C(N[C@H](CO)[C@H](O)c1ccc([N+](=O)[O-])cc1)C(Cl)Cl , please? 25

What do we get for CC[C@H](C)[C@H](N)C1=N[C@H](C(=O)N[C@@H](CC(C)C)C(=O)N[C@H](CCC(=O)O)C(=O)N[C@H](C(=O)N[C@H]2CCCCNC(=O)[C@H](CC(N)=O)NC(=O)[C@@H](CC(=O)O)NC(=O)[C@H](Cc3cnc[nH]3)NC(=O)[C@@H](Cc3ccccc3)NC(=O)[C@H]([C@@H](C)CC)NC(=O)[C@@H](CCCN)NC2=O)[C@@H](C)CC)CS1 [BACITRACIN, bacitracin] ({Ileψ(thiazoline)Cys}-L[dE]IK[dOrn]I[dF]H[dD]N; lactam 4-C) ? 0

Another compound: CC[C@H]1OC(=O)[C@H](C)[C@@H](O[C@H]2C[C@@](C)(OC)[C@@H](O)[C@H](C)O2)[C@H](C)[C@@H](O[C@@H]2O[C@H](C)C[C@H](N(C)C)[C@H]2O)[C@](C)(O)C[C@@H](C)C(=O)[C@H](C)[C@@H](O)[C@]1(C)O 23

Another compound to look at: [H]/N=C(/N)N[C@H]1[C@H](O)[C@@H](O)[C@H](O[C@@H]2O[C@@H](C)[C@](O)(C=O)[C@H]2O[C@@H]2O[C@@H](CO)[C@H](O)[C@@H](O)[C@@H]2NC)[C@@H](N/C(N)=N\[H])[C@@H]1O 15

====

- System: Staphlococcus saprophyticus
- assay explanation: paper disc diffusion susceptibility (Kirby-Bauer) method
- Type: cell-based
- condition info: antibiotic disc with 0.2 μg/ml β-resin in the agar; 24 hours
Positions of bridges follow the written chain, without caps; N, C: chain ends. Non-standard residues stand in square brackets, D forms with d. Residues, ends and D or L forms follow the SMILES beside them. *: point of attachment. Ileψ(thiazoline)Cys = CC[C@H](C)[C@H](N)C1=N[C@H](C(=O)*)CS1; dOrn = NCCC[C@@H](N)C(=O)O
Please provide measured zone of inhibition, Experiment 1 0.2 μg/ml β-resin for the entries that follow.
Express your answer in mm, writing the number without its unit.

Which zone of inhibition, Experiment 1 0.2 μg/ml β-resin reading was recorded for the compound O=C(N[C@H](CO)[C@H](O)c1ccc([N+](=O)[O-])cc1)C(Cl)Cl [CHLORAMPHENICOL, chloramphenicol] ? 27

Now give it for CC[C@H]1OC(=O)[C@H](C)[C@@H](O[C@H]2C[C@@](C)(OC)[C@@H](O)[C@H](C)O2)[C@H](C)[C@@H](O[C@@H]2O[C@H](C)C[C@H](N(C)C)[C@H]2O)[C@](C)(O)C[C@@H](C)C(=O)[C@H](C)[C@@H](O)[C@]1(C)O [ERYTHROMYCIN, erythromycin] too. 25

Then what about the compound CC[C@H](C)[C@H](N)C1=N[C@H](C(=O)N[C@@H](CC(C)C)C(=O)N[C@H](CCC(=O)O)C(=O)N[C@H](C(=O)N[C@H]2CCCCNC(=O)[C@H](CC(N)=O)NC(=O)[C@@H](CC(=O)O)NC(=O)[C@H](Cc3cnc[nH]3)NC(=O)[C@@H](Cc3ccccc3)NC(=O)[C@H]([C@@H](C)CC)NC(=O)[C@@H](CCCN)NC2=O)[C@@H](C)CC)CS1 [BACITRACIN, bacitracin] ({Ileψ(thiazoline)Cys}-L[dE]IK[dOrn]I[dF]H[dD]N; lactam 4-C) ? 0

What about this compound? [H]/N=C(/N)N[C@H]1[C@H](O)[C@@H](O)[C@H](O[C@@H]2O[C@@H](C)[C@](O)(C=O)[C@H]2O[C@@H]2O[C@@H](CO)[C@H](O)[C@@H](O)[C@@H]2NC)[C@@H](N/C(N)=N\[H])[C@@H]1O [STREPTOMYCIN, streptomycin] 15

====

- Tested on: Staphlococcus saprophyticus
- assay explanation: paper disc diffusion susceptibility (Kirby-Bauer) method
- Assay type: cell-based
- condition info: antibiotic disc alone; 24 hours
Positions of bridges follow the written chain, without caps; N, C: chain ends. Non-standard residues stand in square brackets, D forms with d. Residues, ends and D or L forms follow the SMILES beside them. *: point of attachment. Ileψ(thiazoline)Cys = CC[C@H](C)[C@H](N)C1=N[C@H](C(=O)*)CS1; dOrn = NCCC[C@@H](N)C(=O)O
parameter measured: zone of inhibition, Experiment 1 Control (mm)
Your answer should be a plain number; it is taken to be in mm.

Fill in: zone of inhibition, Experiment 1 Control of CC[C@H]1OC(=O)[C@H](C)[C@@H](O[C@H]2C[C@@](C)(OC)[C@@H](O)[C@H](C)O2)[C@H](C)[C@@H](O[C@@H]2O[C@H](C)C[C@H](N(C)C)[C@H]2O)[C@](C)(O)C[C@@H](C)C(=O)[C@H](C)[C@@H](O)[C@]1(C)O is ___ 23

Ok, now O=C(N[C@H](CO)[C@H](O)c1ccc([N+](=O)[O-])cc1)C(Cl)Cl 29

Please do the same for CC[C@H](C)[C@H](N)C1=N[C@H](C(=O)N[C@@H](CC(C)C)C(=O)N[C@H](CCC(=O)O)C(=O)N[C@H](C(=O)N[C@H]2CCCCNC(=O)[C@H](CC(N)=O)NC(=O)[C@@H](CC(=O)O)NC(=O)[C@H](Cc3cnc[nH]3)NC(=O)[C@@H](Cc3ccccc3)NC(=O)[C@H]([C@@H](C)CC)NC(=O)[C@@H](CCCN)NC2=O)[C@@H](C)CC)CS1 [BACITRACIN, bacitracin] ({Ileψ(thiazoline)Cys}-L[dE]IK[dOrn]I[dF]H[dD]N; lactam 4-C) as well. 0

# iterate: [H]/N=C(/N)N[C@H]1[C@H](O)[C@@H](O)[C@H](O[C@@H]2O[C@@H](C)[C@](O)(C=O)[C@H]2O[C@@H]2O[C@@H](CO)[C@H](O)[C@@H](O)[C@@H]2NC)[C@@H](N/C(N)=N\[H])[C@@H]1O 15
